Parameter: IC50. Scope: all listed entries.
Tested on: MRC5
Assay: Cytotoxicity against human MRC5 cells assessed as decrease in cell viability after 24 hrs by resazurin reduction assay
Format: cell-based
Settings: MRC5, 24 h
// note: answer is a bare numeric in µg/mL

Consider the following illustrative entries.
                                   molecule  result_number
0  Clc1ccc2c(c1)N(CCC1CCCCN1)c1ccccc1S2 (centres undefined)             10
1  CN1CCCCC1CCN1c2ccccc2Sc2ccc(Cl)cc21 (centres undefined)             13
2  c1ccc2c(c1)ccn2CCC1CCCCN1 (centres undefined)             15

Lab book: IC50 of CSc1ccc2c(c1)N(CCC1CCCCN1C)c1ccccc1S2 (centres undefined) noted as 8.2

----------
Tested on: Mycolicibacterium smegmatis
Assay: Inhibition of efflux pump in Mycobacterium smegmatis assessed as increase in accumulation of ethidium bromide at 0.25 times MIC measured every min for 60 mins by fluorimetric method
Calls of active or inactive are those of the source. No cut-off for these calls is given here.
ATTRIBUTE MEASURED: inhibition

In [3]: df
Out[3]:
                                   compound    result
0  Clc1ccc2c(c1)N(CCC1CCCCN1)c1ccccc1S2 (centres undefined)  inactive
1        CN1CCN(CCCN2c3ccccc3Sc3ccccc32)CC1    Active
2  CSc1ccc2c(c1)N(CCCN1CCN(C)CC1)c1ccccc1S2    Active
3  c1ccc2c(c1)ccn2CCC1CCCCN1 (centres undefined)  inactive

----------
Parameter: MIC90. Scope: all listed entries.
Test system: Mycobacterium tuberculosis
Test: Antimycobacterial activity against drug-succeptible Mycobacterium tuberculosis CF73 incubated for 7 days measured 24 hrs post incubation by resazurin microtiter assay
Assay type: functional

Consider the following illustrative entries.
In [3]: df
Out[3]:
                                   compound       result
0  CSc1ccc2c(c1)N(C(=O)CN1CCCCC1)c1ccccc1S2  > 100 µg/mL
1        CN1CCN(CCCN2c3ccccc3Sc3ccccc32)CC1  > 100 µg/mL
2  CSc1ccc2c(c1)N(CCC1CCCCN1)c1ccccc1S2 (centres undefined)  > 100 µg/mL

We now examine a further compound.
Lab book: MIC90 of c1ccc2c(c1)ncn2CCC1CCCCN1 (centres undefined) noted as > 100 µg/mL
